- System: Danio rerio Tg(wt1b:EGFP) embryo, pronephros
- measurementNotes: pronephric angle neck segment to proximal convoluted tubule (mean of left and right), fold change vs DMSO control; higher = larger pronephric angle
- measurementSetup: 25 µM; exposure: 24-48 hpf
Structures can show the parent of a compound that is named as a salt.
Label Criterion met when pronephric angle neck segment is at or above 1; otherwise label Criterion not met.

CN1CC2c3ccccc3Oc3ccc(Cl)cc3C2C1 (configuration not stated) [Asenapine maleate]	Criterion not met

Given CC(=O)OCC(=O)[C@@]12OC(C)(C)O[C@@H]1C[C@H]1[C@@H]3C[C@H](F)C4=CC(=O)C=C[C@]4(C)[C@@]3(F)[C@@H](O)C[C@@]12C [Fluocinonide] , state whether its pronephric angle neck segment is at least 1.
Criterion met
